# METHOD SUMMARY: Stability of bio-PN and bio-PO in HEK293T cell lysate by 31P NMR
# Type: in vitro ADME, human
# STATED CONDITIONS: human, HEK293T cell lysate, HEK293T lysate (1 mg/mL), 1 mM peptide, room temperature, read-out: decay in HEK293T cell lysate
*1 amine or outer side, *2 acyl side, *3 side chain or, on linkers, in order; H or OH if unused. Where a SMILES comes first, the peptide text is derived from it. [ ]: non-standard residue; d: D form. The star is where a group is joined. X2 = C#CP(=O)(O)Nc1ccc(C[C@H](N[*:1])C(=O)[*:2])cc1; Biotin = O=C1N[C@H]2[C@H](CS[C@H]2CCCCC(=O)*)N1
QUANTITY KIND: metabolised at 18 h, 1 mM (%)
Report the value in % with no unit label.

// lookup metabolised at 18 h, 1 mM for C#CP(=O)(O)Nc1ccc(C[C@H](NC(=O)[C@H](CCC(=O)O)NC(=O)[C@H](CC(=O)O)NC(=O)[C@H](C)NC(=O)[C@H](CC(=O)O)NC(=O)CCCC[C@@H]2SC[C@@H]3NC(=O)N[C@@H]32)C(=O)N[C@@H](CC(C)C)C(=O)N[C@H](C(=O)N2CCC[C@H]2C(=O)N[C@@H](CCC(N)=O)C(=O)N[C@@H](CCC(N)=O)C(=O)NCC(N)=O)[C@@H](C)CC)cc1 [bio-PN] (Biotin-DADE[X2]LIPQQG-NH2)
20
